Below, each entry is listed with its recorded pIC50.
target_of_assay: BACE1 (Homo sapiens)
Sequence (P56817 46-501, species assumed): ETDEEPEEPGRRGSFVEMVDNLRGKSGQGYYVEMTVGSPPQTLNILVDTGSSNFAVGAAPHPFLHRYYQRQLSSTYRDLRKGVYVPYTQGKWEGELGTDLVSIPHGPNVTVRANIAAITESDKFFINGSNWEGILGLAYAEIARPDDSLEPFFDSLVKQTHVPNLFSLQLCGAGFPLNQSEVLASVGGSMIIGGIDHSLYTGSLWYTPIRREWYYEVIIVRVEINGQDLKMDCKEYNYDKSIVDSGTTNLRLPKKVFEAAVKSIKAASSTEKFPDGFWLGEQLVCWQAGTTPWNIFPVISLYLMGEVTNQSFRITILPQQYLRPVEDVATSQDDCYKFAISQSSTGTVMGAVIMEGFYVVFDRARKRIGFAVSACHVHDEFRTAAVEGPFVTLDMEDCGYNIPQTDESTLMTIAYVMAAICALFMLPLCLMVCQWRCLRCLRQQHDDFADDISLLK
experiment_summary: In Vitro BACE Cell-based Assay (HEK cell assay): Aβ40 in conditioned medium of cells stably expressing Amyloid Precursor Protein, sandwich ELISA
assay_conditions: read-out: HEK cell assay
pIC50: −log10 of the molar value.

# compound, pIC50
measured = [
    ("CC(C)(C)COc1ccc2c(n1)[C@@]1(COC(N)=N1)c1cc(Br)ccc1O2 [compound 736]", "< 5.30"),
    ("COc1ccc2c(c1)[C@@]1(COC(N)=N1)c1cc(-c3cncnc3)cnc1O2", "5.30 to 6.00"),
    ("COC(C)(C)C#Cc1cnc2c(c1)[C@@]1(COC(N)=N1)c1cc(-c3ccc(F)nc3)ccc1O2", "5.30 to 6.00"),
    ("NC1=N[C@]2(CO1)c1cc(-c3ccccc3)ccc1Oc1ncc(C3=CCOCC3)cc12", "5.30 to 6.00"),
    ("CC(C)N1CC=C(c2ccc3c(c2)[C@]2(COC(N)=N2)c2cc(-c4cncnc4)ccc2O3)CC1", "> 7.00"),
]

Request: Supply pIC50 value. Item: NC1=N[C@]2(CO1)c1cc(C(=O)N3CCCC3)ccc1Oc1ccc(-c3cccnc3)cc12
Result: 6.00 to 7.00

Request: Please supply the value of reported pIC50 for the item CC(C)(C)CCOc1nccc2c1[C@@]1(COC(N)=N1)c1cc(-c3cncnc3)ccc1O2
Result: < 5.30

Request: Query pIC50 for CC(C)(C)COc1ccc2c(n1)[C@@]1(COC(N)=N1)c1cc(Br)ccc1O2 [compound 734]
Result: < 5.30

Data provenance: patent US8426447B2
